Biological target: IRAK4 (Homo sapiens (Human), UniProt Q9NWZ3)
Sequence (Q9NWZ3 whole entry, species assumed): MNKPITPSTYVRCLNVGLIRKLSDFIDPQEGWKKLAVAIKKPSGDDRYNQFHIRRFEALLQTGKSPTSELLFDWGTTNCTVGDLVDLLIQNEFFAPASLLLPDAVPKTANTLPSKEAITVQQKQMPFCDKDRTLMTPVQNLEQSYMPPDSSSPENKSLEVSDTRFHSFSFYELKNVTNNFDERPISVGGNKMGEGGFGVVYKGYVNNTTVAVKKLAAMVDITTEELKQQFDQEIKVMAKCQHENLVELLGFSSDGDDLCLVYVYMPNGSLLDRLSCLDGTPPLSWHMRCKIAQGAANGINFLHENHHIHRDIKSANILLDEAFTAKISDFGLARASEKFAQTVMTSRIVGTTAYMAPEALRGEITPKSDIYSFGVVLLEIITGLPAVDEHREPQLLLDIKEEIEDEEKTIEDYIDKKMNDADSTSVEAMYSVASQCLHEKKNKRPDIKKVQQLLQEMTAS
Assay: IRAK4 Inhibition Assay
Assay type: biochemical
Conditions: ATP 500 μM; IRAK4 0.6 nM; read-out: IRAK4 IC50
Hi there, I'd appreciate the recorded pIC50 for every entry that follows.
Keep it numeric: pIC50 is minus log10 of the concentration in mol/L.

Query: Given the compound CC(C)CCNC(=O)c1cnc(-n2ncc3cc(C#N)cnc32)cc1NC1COC1 , what is its reported pIC50?
Result: 8.29

Query: Give its pIC50 value. Item: CC1COCCN1CCNc1cc(-n2ccc3cc(C#N)cnc32)ncc1C(=O)NC[C@@H](F)C(C)(C)O (mixture of isomers)
Result: 7.97

Query: Recorded pIC50 of CC(C)(O)[C@H](F)CNC(=O)c1cnc(-n2ncc3cc(C#N)cnc32)cc1N[C@@H]1CCN(c2ncc(F)cn2)C1 , please.
Result: 8.26

Query: What value of measured pIC50 is listed for CC(C)(O)[C@H](F)CNC(=O)c1cnc(-n2ncc3cc(C#N)cnc32)cc1Nc1cnn(-c2ncccn2)c1 ?
Result: 8.82

Query: Fill blank: measured pIC50 of the compound CC(C)(O)[C@H](F)CNC(=O)c1cnc(-n2ccc3cc(C#N)cnc32)cc1NC1CC1c1c[nH]cn1 (mixture of isomers) is ____.
Result: 8.48

Query: Find the recorded pIC50 belonging to CC(C)C(O)CNc1cc(-n2ncc3cc(Cl)cnc32)ncc1C(=O)NC[C@@H](F)C(C)(C)O (single isomer, unassigned) [Example 596] and report it.
Result: 7.74

Query: pIC50; subject: CC(F)(CO)CNc1cc(-n2ncc3cc(C#N)cnc32)ncc1C(=O)NC[C@@H](F)C(C)(C)O (mixture of isomers)
Result: 7.93

Query: Dear colleague, I am looking for the recorded pIC50 of the following compound: CC(C)(O)[C@H](F)CNC(=O)c1cnc(-n2ncc3cc(C#N)cnc32)cc1Nc1cc(C2CC2)n[nH]1
Result: 8.96

Query: If you can, please state the reported pIC50 value of CC(C)(O)[C@H]1CCC[C@@H](Nc2cc(-n3ncc4cc(C#N)cnc43)ncc2C(=O)NC[C@@H](F)C(C)(C)O)C1 .
Result: 8.25

Query: So what's the measured pIC50 for this one? CNC(=O)[C@H]1CC[C@H](NC(=O)c2cnc(-n3ncc4cc(C#N)c(N)nc43)cc2N[C@@H]2CCCC[C@H]2F)CC1
Result: 8.48

Query: Which pIC50 is listed for CC(C)(O)[C@H](F)CNC(=O)c1cnc(-n2ncc3cc(C#N)cnc32)cc1Nc1ccn(CC(F)F)n1 ?
Result: 8.51

Query: For the compound shown here, CCNc1cc(-n2ncc3cnc(N)nc32)ncc1C(=O)NC[C@@H](F)C(C)(C)O , give the reported pIC50.
Result: 7.97

Query: Data request, read-out pIC50, for CC(C)(O)[C@H](F)CNC(=O)c1cnc(-n2ccc3cc(C#N)cnc32)cc1NC1CN(S(C)(=O)=O)C1
Result: 8.52

Query: Which pIC50 is reported for this compound? C[C@H](F)CNc1cc(-n2ccc3cc(C#N)cnc32)ncc1C(=O)NC[C@@H](F)C(C)(C)O
Result: 8.85

Query: I am curious: what pIC50 value has been reported for Cn1nccc1Nc1cc(-n2ccc3cc(C#N)cnc32)ncc1C(=O)NC[C@@H](F)C(C)(C)O ?
Result: 8.22

Query: Look up pIC50: CCCOC(=O)NCc1cnc2c(ccn2-c2cc(NC(C)C)c(C(=O)NC[C@@H](F)C(C)(C)O)cn2)c1
Result: 8.55

Query: Given CC(C)(C)CNc1cc(-n2ncc3cc(C#N)cnc32)ncc1C(=O)NC[C@@H](F)C(C)(C)O , state its recorded pIC50.
Result: 8.24

Query: May I ask what pIC50 has been recorded for CC(=O)N1CC(Nc2cc(-n3ccc4cc(C#N)cnc43)ncc2C(=O)NC[C@@H](F)C(C)(C)O)C1 ?
Result: 8.24

Query: Look at this compound and give its reported pIC50. CC(C)(O)[C@H](F)CNC(=O)c1cnc(-n2ccc3cc(C#N)cnc32)cc1Nc1ccc2[nH]ncc2c1
Result: 8.60

Query: Given the entry CC(C)Nc1cc(-n2ccc3cc(CNC(=O)NCc4ccccc4)cnc32)ncc1C(=O)NC[C@@H](F)C(C)(C)O , report its measured pIC50.
Result: 8.09

Query: What does the record list as pIC50 for CC(C)(O)[C@H]1CC[C@H](Nc2cc(-n3ncc4cc(C#N)cnc43)ncc2C(=O)NC[C@@H](F)C(C)(C)O)C1 ?
Result: 8.55

Query: What value of measured pIC50 is listed for COc1cccc(Nc2cc(-n3ccc4cc(C#N)cnc43)ncc2C(=O)NC[C@@H](F)C(C)(C)O)c1 ?
Result: 8.36

Query: Recorded pIC50 for CC(C)(O)[C@H](F)CNC(=O)c1cnc(-n2ccc3cc(C#N)cnc32)cc1NC1CN(c2ncc(F)cn2)C1 , please?
Result: 8.70

* * *

Tested on: TLR2 induced IL-6 in peripheral blood mononuclear cells (PBMCs)
Assay: PBMC TLR2 Induced IL-6 Assay
Assay type: cell-based, human
Details: Homo sapiens, PBMC, PBMC TLR2 Induced IL-6 Assay; lipoteichoic acid stimulation, IL-6 by ELISA; read-out: Cell IC50
Give IC50 for every item shown.
Provide only the numeric value, understood in nM.

Query: Look up IC50 for this molecule: CC(C)Nc1cc(-n2ncc3cc(C#N)cnc32)ncc1C(=O)NCCC1CCOCC1
Result: 23

Query: Recorded IC50 of CNC(=O)[C@H]1CC[C@H](NC(=O)c2cnc(-n3ccc4cc(C#N)cnc43)cc2NC(C)C)CC1 , please.
Result: 79

Query: # IC50 lookup, item CNC(=O)[C@H](F)CNC(=O)c1cnc(-n2ncc3cc(C#N)cnc32)cc1NC(C)C
Result: 1420

Query: GET /values?readout=IC50&item= CC[C@@H](C)Nc1cc(-n2ncc3cc(C#N)cnc32)ncc1C(=O)NC[C@@H](F)C(C)(C)O
Result: 135

Query: Consider the molecule shown here: CNC(=O)[C@H]1CC[C@H](NC(=O)c2cnc(-n3ccc4cc(C#N)ccc43)cc2NC(C)C)CC1 What is its recorded IC50?
Result: 436

Query: What value of IC50 has been recorded for this entry: CC(Nc1cc(-n2ncc3cc(C#N)c(N)nc32)ncc1C(=O)NC[C@@H](F)C(C)(C)O)C(F)(F)F (stereo partly shown)
Result: 63

Query: What measured IC50 goes with CCCNC(=O)c1cnc(-n2ncc3cc(C#N)c(N)nc32)cc1NC(C)C ?
Result: 30

Query: # lookup: IC50 of CC(C)Nc1cc(-n2ccc3cccnc32)ncc1C(=O)NC[C@@H](F)C(C)(C)O
Result: 531

Query: Param item = CC(C)Nc1cc(-n2cnc3cnc(N)nc32)ncc1C(=O)NC[C@@H](F)C(C)(C)F ; retrieve measured IC50.
Result: 306

Query: Looking for the measured IC50 of CNC(=O)[C@H]1CC[C@H](NC(=O)c2cnc(-n3ccc4cncnc43)cc2NC2CCOCC2)CC1 , can you help?
Result: 578

Query: Reported IC50 for CC(C)Nc1cc(-n2ncc3cc(C#N)cnc32)ncc1C(=O)NCCC1(O)CC1 : what is it?
Result: 57

Query: Reported IC50 for CC(C)(O)[C@H](F)CNC(=O)c1cnc(-n2ncc3cc(Cl)cnc32)cc1Nc1cnn(CCC#N)c1 : what is it?
Result: 440

Query: Bench note: what IC50 did CC(C)Nc1cc(-n2ncc3cc(C#N)c(N)nc32)ncc1C(=O)NC[C@@H](C)F show?
Result: 11

Query: What value of IC50 has been recorded for this entry: CC(=O)Nc1ccc(CCNC(=O)c2cnc(-n3ncc4cc(C#N)cnc43)cc2NC(C)C)cc1
Result: 348

Query: Using the record for COCCn1cc(Nc2cc(-n3ncc4cc(Cl)cnc43)ncc2C(=O)NC[C@@H](F)C(C)(C)O)cn1 , report its IC50.
Result: 83

Query: Data request, read-out IC50, for CC(C)Nc1cc(-n2ncc3cc(C#N)c(N)nc32)ncc1C(=O)NC[C@@H](F)C(C)(C)F
Result: 240

* * *

Molecular target: IRAK4 (Homo sapiens (Human))
Assay: IRAK4 Inhibition Assay
Type: biochemical
Conditions: IRAK4 Inhibition Assay; ATP 500 μM; read-out: IRAK4 IC50
recorded_metric: pIC50
# pIC50 = -log10(concentration in molar units)

Query: Recorded pIC50 of CC(C)Nc1cc(-n2ncc3cc(C#N)cnc32)ncc1C(=O)Nc1ccc(N2CCN(C)CC2)cn1 , please.
Result: 8.14

Query: Please report the recorded pIC50 for CC(C)Nc1cc(-n2ncc3cc(Cl)cnc32)ncc1C(=O)N[C@H]1CC[C@H](C(C)(C)O)CC1 .
Result: 8.05

Query: Could you tell me which pIC50 is on file for CC(C)Nc1cc(-n2ncc3cc(C#N)cnc32)ncc1C(=O)NC[C@@H](F)C(C)(C)OC(F)F ?
Result: 7.86

Query: Can you look up the measured pIC50 of CS[C@H]1CC[C@H](NC(=O)c2cnc(-n3ccc4cc(C#N)cnc43)cc2NC(C)C)CC1 for me?
Result: 8.11
